Biological target: Fyn (UniProt P06241)
Sequence (P06241 whole entry, looked up): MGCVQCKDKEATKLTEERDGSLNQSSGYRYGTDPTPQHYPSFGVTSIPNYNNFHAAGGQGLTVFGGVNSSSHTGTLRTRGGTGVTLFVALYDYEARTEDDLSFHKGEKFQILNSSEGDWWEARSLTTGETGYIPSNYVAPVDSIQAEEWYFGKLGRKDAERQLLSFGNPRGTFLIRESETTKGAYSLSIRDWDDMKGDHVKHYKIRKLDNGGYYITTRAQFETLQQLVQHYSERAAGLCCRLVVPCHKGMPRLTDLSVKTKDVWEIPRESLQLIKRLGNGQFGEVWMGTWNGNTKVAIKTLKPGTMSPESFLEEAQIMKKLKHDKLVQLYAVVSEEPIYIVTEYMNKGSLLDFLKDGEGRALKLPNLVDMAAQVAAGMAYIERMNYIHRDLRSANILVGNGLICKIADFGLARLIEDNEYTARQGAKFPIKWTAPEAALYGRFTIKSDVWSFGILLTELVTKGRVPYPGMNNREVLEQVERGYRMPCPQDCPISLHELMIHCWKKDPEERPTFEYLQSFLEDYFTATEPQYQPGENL
Assay: phosphorylation enrichment, bacterial display (enrichment ratio); higher = better substrate or ligand; peptides without Tyr show the background
Recorded Endpoint: phosphorylation enrichment
Write the value as a bare number.

> print(dat)
                         residues  assay.result
1          YLENYYDLKKD [MMP3_Y42]          3.76
2      FDCGMYSHLQG [LGR4_Y848_YF]         0.985
3    DPYHVYIKNHV [KCNE3_Y95_R99H]         0.981
4  LADMNYVHCDL [EPHB2_Y742_R745C]          0.57

State the recorded phosphorylation enrichment for this entry: GKTFTYRSVFF [ZNF80_Y200] 0.43

Again, but for GTATTYLCGVK [ALPL_Y117_A116T] 0.479

Again, but for SELVCYDARVH [MET_Y971_R970C] 0.603

Again, but for VIEFSYTSADG [DHCR7_Y382_C380Y_YF] 0.442

Again, but for EVTRLYGSVCD [TC2N_Y154_K151T] 3.63

* * *

Here the recorded phosphorylation enrichment is given for each entry.
Molecular target: Fyn (UniProt P06241)
Assay: phosphorylation enrichment, bacterial display (enrichment ratio); higher = better substrate or ligand; peptides without Tyr show the background
Write the value as a bare number.

Completed entries (count: 3):
> print(dat)
                           residues           recorded.endpoint  assay.result
1  HCFNSYTFPRL [PAK7_Y316_S312C_YF]  phosphorylation enrichment         0.707
2            VTGWGYRKLRD [F11_Y521]  phosphorylation enrichment         0.463
3    EEGNPSYSSAR [MCCC2_Y520_Y520S]  phosphorylation enrichment         0.497

State the recorded phosphorylation enrichment for this entry: TRSFDYMEGGD [FGF7_Y58_YF] 0.535

Again, but for QFNPEYVQQAS [LRRC7_Y1058_H1054Y_YF] 0.687

* * *

Here the recorded SH2 binding enrichment is given for each entry.
Target: SHP2-C SH2;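 further: peptide library displayed on the E. coli surface as eCPX fusions, selected cells deep-sequenced, score is each peptide's frequency after selection divided by its frequency in the input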
Test: SH2 binding enrichment of the phosphorylated peptide, bacterial display (enrichment ratio); higher = better substrate or ligand; peptides without Tyr show the background

Completed entries (count: 3):
> print(dat)
                          residues  assay.result
1  IKGIRYLHHQG [GUCY2D_Y656_R660Q]         0.716
2       RPSGRYPVARR [SHANK3_Y1569]         0.514
3    RLSARYFQGDL [PDK3_Y337_Y334S]          1.01

State the recorded SH2 binding enrichment for this entry: CTTIHYNFMCN [TP53_Y234_Y236F] 1.93

Again, but for KGSLPYSLILD [PKD1L2_Y406_N407S] 4.67

Again, but for YSKDNYKRVTG [PANK2_Y405] 0.597

Again, but for MSRLKYPVSQQ [BTK_Y375_I370M] 0.78

Again, but for SVTCTYSPVLN [TP53_Y126_A129V] 0.683

Again, but for YGSGNYNDFGN [HNRNPA2B1_Y300] 0.629

Again, but for DLDTEYGSGYP [RNASEH2A_Y206_D205E] 0.464

Again, but for ATGMEYLASQK [FGFR2_Y616_R612T] 0.571
